B1: H2-Kb / Ed21 (parent complex)
chain 1: AQSVTQPDARVTVSEGASLQLRCKYSYFGTPYLFWYVQYPRQGLQLLLKYYPGDPVVQGVNGFEAEFSKSNSSFHLRKASVHWSDWAVYFCAVSMSGGYKVVFGSGTRLLVSP
chain 2: DSGVVQSPRHIIKEKGGRSVLTCIPISGHSNVVWYQQTLGKELKFLIQHYEKVERDKGFLPSRFSVQQFDDYHSEMNMSALELEDSAMYFCASSPRQTDYTFGSGTRLLVI
chain 3: not shown
chain 4: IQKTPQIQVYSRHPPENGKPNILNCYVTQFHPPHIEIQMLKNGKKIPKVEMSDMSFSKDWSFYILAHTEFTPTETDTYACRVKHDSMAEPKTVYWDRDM
chain 5: SIINFEKL

Variants of: B1
Assay: % of reporter cells activated (NFAT-GFP), raw; also: test concentration or dose not given here
EXPERIMENTAL ENDPOINT: ratio to parent

Reference set (4 entries):
* chain 5 E6S | 0.641
* chain 5 K7P | 0.667
* chain 5 N4S | 0.271
* chain 5 L8Q | 0.894

P: chain 5 I3C
Q: chain 5 N4C
R: chain 5 N4P
S: chain 5 K7A
q: Ascending sort, ratio to parent. Put the labels in the requested order and write them down.
a: R, Q, S, P
(R: 0.0248, Q: 0.162, S: 0.645, P: 0.989)

Attribution: paper PMC11480844
